Sourced from patent US20180065968A1

log10 ED90 listing for selected molecules.
Tested on: P. falciparum Pf3D70087/N9
assay-summary: SCID mouse P. falciparum in vivo efficacy model
Parameters: species or system P. falciparum in NOD-scid IL-2Rγnull (NSG) mice
experimental-conditions: oral, starting day 3 post infection, NSG mice engrafted with human erythrocytes
measure-name: log10 ED90 (log10 of the value in mg/kg per day)

{"columns": ["molecule", "assay-target", "log10 ED90"],
 "data": [
  ["Cc1cc(Nc2ccc(C(F)(F)F)cc2)n2nc(C(C)(F)F)nc2n1 [Reference 3]", "P. falciparum Pf3D70087/N9", 1.41],
  ["CCN(CC)CCCC(C)Nc1ccnc2cc(Cl)ccc12 (centres unmarked)", "P. falciparum Pf3D70087/N9", 0.63],
  ["Cc1cc(Nc2ccc(S(F)(F)(F)(F)F)cc2)n2nc(C(C)(F)F)nc2n1 [Reference 4]", "P. falciparum Pf3D70087/N9", 0.91],
  ["Cc1cc(Nc2ccc(C(F)(F)F)nc2)n2nc(C(C)(F)F)nc2n1", "P. falciparum Pf3D70087/N9", 0.41],
  ["CCc1nc(N)nc(N)c1-c1ccc(Cl)cc1", "P. falciparum Pf3D70087/N9", -0.05]
]}

###

assay-target: pfDHODH (Plasmodium falciparum, UniProt Q08210)
Sequence (Q08210 24-569): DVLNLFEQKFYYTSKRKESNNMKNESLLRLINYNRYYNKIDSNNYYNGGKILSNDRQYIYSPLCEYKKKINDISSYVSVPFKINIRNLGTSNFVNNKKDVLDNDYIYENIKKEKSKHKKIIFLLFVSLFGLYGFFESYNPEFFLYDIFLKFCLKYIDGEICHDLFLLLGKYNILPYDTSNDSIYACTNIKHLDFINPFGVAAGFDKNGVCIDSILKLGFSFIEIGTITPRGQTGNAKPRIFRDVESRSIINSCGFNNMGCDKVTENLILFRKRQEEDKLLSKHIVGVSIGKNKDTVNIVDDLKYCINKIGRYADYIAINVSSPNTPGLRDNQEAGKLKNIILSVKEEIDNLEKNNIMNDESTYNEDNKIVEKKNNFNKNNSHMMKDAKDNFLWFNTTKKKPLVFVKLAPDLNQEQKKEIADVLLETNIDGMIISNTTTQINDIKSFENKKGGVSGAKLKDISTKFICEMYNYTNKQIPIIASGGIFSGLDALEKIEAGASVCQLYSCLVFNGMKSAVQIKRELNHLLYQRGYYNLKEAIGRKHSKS
assay-summary: biochemical
experimental-conditions: recombinant enzyme, DCIP assay, IC50; read-out: PfDHODH
pIC50: −log10 of the molar value.
pIC50 listing for selected compounds.
measure-name: pIC50

{"columns": ["compound", "reported-measurement"],
 "data": [
  ["Cc1cc(Nc2ccc(C(F)(F)F)nc2)n2nc(C(C)(F)F)nc2n1 [Reference 1]", 7.30],
  ["Cc1cc(Nc2ccc(C(F)(F)F)nc2)n2nc(C(F)(F)F)nc2n1", 7.39],
  ["Cc1cc(Nc2ccc(C(F)(F)F)nc2)n2nc(C(C)(F)F)nc2n1 [Compound (1)]", 7.52],
  ["Cc1cc(Nc2ccc(C(F)(F)F)cn2)n2nc(C(F)(F)F)nc2n1 [Reference 2]", 7.43],
  ["Cc1nc2nc(C(C)(F)F)nn2c(Nc2ccc(C(F)(F)F)nc2)c1F", 7.64]
]}

###

assay-target: dog DHODH (Canis lupus familiaris)
Sequence (A0A8I3MWX2 1-406): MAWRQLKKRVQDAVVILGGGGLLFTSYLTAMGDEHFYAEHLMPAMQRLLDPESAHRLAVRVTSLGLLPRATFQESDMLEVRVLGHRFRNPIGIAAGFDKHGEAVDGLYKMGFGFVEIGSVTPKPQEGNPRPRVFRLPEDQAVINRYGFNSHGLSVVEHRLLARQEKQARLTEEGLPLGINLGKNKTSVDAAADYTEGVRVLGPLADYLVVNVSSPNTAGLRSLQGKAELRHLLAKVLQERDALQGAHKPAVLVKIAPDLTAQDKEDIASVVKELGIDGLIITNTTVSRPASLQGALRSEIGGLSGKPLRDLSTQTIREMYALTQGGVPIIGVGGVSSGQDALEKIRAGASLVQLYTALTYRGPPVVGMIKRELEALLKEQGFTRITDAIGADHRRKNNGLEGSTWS
assay-summary: Recombinant DHODH inhibition, DCIP dye-based assay
Type: biochemical
experimental-conditions: dog DHODH, second value of cell; read-out: h/d/m/r DHODH (d)
IC50 listing for selected compounds.

{"columns": ["compound", "assay-target", "scale-unit", "value-prefix", "IC50"],
 "data": [
  ["Cc1cc(Nc2ccc(C(F)(F)F)cc2)n2nc(C(C)(F)F)nc2n1 [Reference 3]", "dog DHODH (Canis lupus familiaris)", "µM", ">", 100],
  ["Cc1cc(Nc2ccc(C(F)(F)F)nc2)n2nc(C(C)(F)F)nc2n1 [Compound (1)]", "dog DHODH (Canis lupus familiaris)", "µM", "=", 65],
  ["Cc1cc(Nc2ccc(C(F)(F)F)nc2)n2nc(C(C)(F)F)nc2n1 [Reference 1]", "dog DHODH (Canis lupus familiaris)", "µM", "=", 21],
  ["Cc1nc2nc(C(C)(F)F)nn2c(Nc2ccc(C(F)(F)F)nc2)c1F [Compound (2)]", "dog DHODH (Canis lupus familiaris)", "µM", "=", 9.2]
]}

###

assay-summary: Aqueous kinetic solubility by nephelometry
Format: physicochemical
experimental-conditions: aqueous buffer, kinetic from dmso stock, pH 6.5 phosphate buffer, 1% DMSO, read-out: Kinetic Solubility pH6.5
measure-name: solubility kinetic

{"columns": ["compound", "reported-measurement"],
 "data": [
  ["Cc1cc(Nc2ccc(C(F)(F)F)nc2)n2nc(C(C)(F)F)nc2n1", "> 100 µg/mL"],
  ["Cc1cc(Nc2ccc(C(F)(F)F)cn2)n2nc(C(F)(F)F)nc2n1 [Reference 2]", "1.6 µg/mL"],
  ["Cc1nc2nc(C(C)(F)F)nn2c(Nc2ccc(C(F)(F)F)nc2)c1F", "> 100 µg/mL"],
  ["Cc1cc(Nc2ccc(S(F)(F)(F)(F)F)cc2)n2nc(C(C)(F)F)nc2n1 [Reference 4]", "25 µg/mL"],
  ["Cc1cc(Nc2ccc(C(F)(F)F)cc2)n2nc(C(C)(F)F)nc2n1 [Reference 3]", "50 µg/mL"],
  ["Cc1cc(Nc2ccc(C(F)(F)F)nc2)n2nc(C(F)(F)F)nc2n1", "50 µg/mL"]
]}

###

IC50 listing for selected compounds.
assay-target: human DHODH (Homo sapiens, UniProt Q02127)
Sequence (Q02127 whole entry): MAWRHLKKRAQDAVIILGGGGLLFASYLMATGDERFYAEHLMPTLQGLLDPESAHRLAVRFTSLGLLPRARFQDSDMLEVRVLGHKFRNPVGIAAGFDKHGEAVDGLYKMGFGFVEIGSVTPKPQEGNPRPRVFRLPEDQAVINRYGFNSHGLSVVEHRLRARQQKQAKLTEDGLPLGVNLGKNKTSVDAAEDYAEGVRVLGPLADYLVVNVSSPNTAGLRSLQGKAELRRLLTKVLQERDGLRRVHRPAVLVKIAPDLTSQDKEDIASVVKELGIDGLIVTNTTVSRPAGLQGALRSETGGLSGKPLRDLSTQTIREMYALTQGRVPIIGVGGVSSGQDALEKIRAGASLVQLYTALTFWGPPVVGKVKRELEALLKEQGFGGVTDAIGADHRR
assay-summary: Recombinant DHODH inhibition, DCIP dye-based assay
experimental-conditions: first value of cell, read-out: h/d/m/r DHODH (h)

{"columns": ["compound", "IC50"],
 "data": [
  ["Cc1cc(Nc2ccc(C(F)(F)F)nc2)n2nc(C(F)(F)F)nc2n1 [Compound (3)]", "> 100 µM"],
  ["Cc1cc(Nc2ccc(C(F)(F)F)nc2)n2nc(C(C)(F)F)nc2n1 [Reference 1]", "58 µM"],
  ["Cc1nc2nc(C(C)(F)F)nn2c(Nc2ccc(C(F)(F)F)nc2)c1F [Compound (2)]", "62 µM"],
  ["Cc1cc(Nc2ccc(C(F)(F)F)cn2)n2nc(C(F)(F)F)nc2n1 [Reference 2]", "> 50 µM"],
  ["Cc1cc(Nc2ccc(C(F)(F)F)cc2)n2nc(C(C)(F)F)nc2n1 [Reference 3]", "> 100 µM"],
  ["Cc1cc(Nc2ccc(C(F)(F)F)nc2)n2nc(C(C)(F)F)nc2n1 [Compound (1)]", "> 100 µM"]
]}
